pIC50, UniProtKB P05979, per-entry values.
Sequence (P05979 25-600): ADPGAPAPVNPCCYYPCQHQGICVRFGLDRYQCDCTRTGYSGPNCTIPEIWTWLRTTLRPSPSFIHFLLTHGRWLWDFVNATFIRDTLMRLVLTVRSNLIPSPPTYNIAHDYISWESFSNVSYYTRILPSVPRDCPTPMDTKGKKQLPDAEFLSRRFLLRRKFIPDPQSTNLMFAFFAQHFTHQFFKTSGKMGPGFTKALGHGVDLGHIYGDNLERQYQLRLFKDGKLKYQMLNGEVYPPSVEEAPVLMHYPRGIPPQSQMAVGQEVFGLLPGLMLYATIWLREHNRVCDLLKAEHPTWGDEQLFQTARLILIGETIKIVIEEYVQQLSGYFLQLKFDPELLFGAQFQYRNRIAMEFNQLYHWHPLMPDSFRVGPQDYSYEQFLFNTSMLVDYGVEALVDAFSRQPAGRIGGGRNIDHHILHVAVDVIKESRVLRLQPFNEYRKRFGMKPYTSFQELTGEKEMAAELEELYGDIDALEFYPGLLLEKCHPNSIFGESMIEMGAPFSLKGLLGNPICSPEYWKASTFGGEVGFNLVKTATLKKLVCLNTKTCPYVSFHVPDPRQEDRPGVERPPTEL
Please treat pIC50 as minus the base-10 logarithm of the molar concentration.

Below, 5 compounds whose answers are already recorded.
CC(=O)Oc1ccc(Cl)cc1C(=O)N1C/C(=C\c2ccc(Br)cc2)C(=O)/C(=C/c2ccc(Br)cc2)C1 [Compound 5l] : 6.23
CC(=O)Oc1ccccc1C(=O)N1C/C(=C\c2ccc(F)cc2)C(=O)/C(=C/c2ccc(F)cc2)C1 [Compound 5b] : 6.84
CC(=O)Oc1ccccc1C(=O)N1C/C(=C\c2ccc(Cl)cc2)C(=O)/C(=C/c2ccc(Cl)cc2)C1 [Compound 5c] : 6.57
COc1ccc(/C=C2\CN(C(=O)c3cc(Cl)ccc3OC(C)=O)C/C(=C\c3ccc(OC)cc3)C2=O)cc1 [Compound 5m] : 6.84
CC(=O)Oc1ccccc1C(=O)N1C/C(=C\c2ccccc2)C(=O)/C(=C/c2ccccc2)C1 [Compound 5a] : 6.60

# input Reported pIC50, compound CC(=O)Oc1ccccc1C(=O)N1C/C(=C\c2ccc(C)cc2)C(=O)/C(=C/c2ccc(C)cc2)C1 [Compound 5e] : ____
# output 6.60

# input Repeat with CC(=O)Oc1ccc(Cl)cc1C(=O)N1C/C(=C\c2cccs2)C(=O)/C(=C/c2cccs2)C1 [Compound 5p]
# output 6.55

###

Molecular target: EGFR (Homo sapiens, UniProt P00533)
Sequence (P00533 25-1210): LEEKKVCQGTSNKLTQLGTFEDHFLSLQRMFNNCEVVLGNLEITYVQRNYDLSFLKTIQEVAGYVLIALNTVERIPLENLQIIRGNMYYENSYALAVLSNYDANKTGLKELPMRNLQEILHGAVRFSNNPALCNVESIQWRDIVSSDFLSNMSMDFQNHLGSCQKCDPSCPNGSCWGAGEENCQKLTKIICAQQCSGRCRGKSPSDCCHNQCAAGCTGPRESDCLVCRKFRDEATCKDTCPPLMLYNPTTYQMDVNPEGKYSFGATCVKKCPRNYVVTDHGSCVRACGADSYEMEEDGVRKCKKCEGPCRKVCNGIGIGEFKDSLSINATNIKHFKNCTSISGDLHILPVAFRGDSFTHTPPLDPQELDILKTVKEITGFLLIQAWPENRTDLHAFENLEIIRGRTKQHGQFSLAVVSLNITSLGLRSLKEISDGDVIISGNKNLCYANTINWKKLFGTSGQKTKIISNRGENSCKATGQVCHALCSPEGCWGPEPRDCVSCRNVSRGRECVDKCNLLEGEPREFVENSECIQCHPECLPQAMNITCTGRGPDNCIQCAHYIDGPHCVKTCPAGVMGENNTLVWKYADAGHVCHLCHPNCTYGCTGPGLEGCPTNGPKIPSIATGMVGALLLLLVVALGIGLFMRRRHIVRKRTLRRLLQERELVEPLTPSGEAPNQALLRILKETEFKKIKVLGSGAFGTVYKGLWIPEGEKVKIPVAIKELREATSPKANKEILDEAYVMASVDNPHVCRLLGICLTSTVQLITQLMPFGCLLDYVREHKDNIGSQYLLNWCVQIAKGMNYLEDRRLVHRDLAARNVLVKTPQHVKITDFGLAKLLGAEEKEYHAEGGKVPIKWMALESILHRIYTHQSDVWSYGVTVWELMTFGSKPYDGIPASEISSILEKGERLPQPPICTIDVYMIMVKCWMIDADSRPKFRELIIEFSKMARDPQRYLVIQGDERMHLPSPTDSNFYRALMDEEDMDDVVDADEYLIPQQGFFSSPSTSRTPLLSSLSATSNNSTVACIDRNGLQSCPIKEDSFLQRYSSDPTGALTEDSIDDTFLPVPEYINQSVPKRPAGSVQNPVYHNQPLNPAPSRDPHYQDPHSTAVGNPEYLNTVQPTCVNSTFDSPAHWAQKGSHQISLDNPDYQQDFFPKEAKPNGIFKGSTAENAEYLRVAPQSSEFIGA
Test: EGFR Western blot in MCF7
Format: cell-based
Conditions: Western blot at MTT-IC50
Decide using EGFR MCF7 % Inhibition alone. Strictly below 60%: MET. Equal to or above 60%: NOT MET.

Answered cases to consult:
CC(=O)Oc1ccccc1C(=O)N1C/C(=C\c2ccc(F)cc2)C(=O)/C(=C/c2ccc(F)cc2)C1 [Compound 5b] : NOT MET
COc1cc(/C=C2\CN(C(=O)c3cc(Cl)ccc3OC(C)=O)C/C(=C\c3cc(OC)c(OC)c(OC)c3)C2=O)cc(OC)c1OC [Compound 5o] : NOT MET
CC(=O)Oc1ccc(Cl)cc1C(=O)N1C/C(=C\c2ccccc2)C(=O)/C(=C/c2ccccc2)C1 [Compound 5j] : NOT MET
COc1ccc(/C=C2\CN(C(=O)c3cc(Cl)ccc3OC(C)=O)C/C(=C\c3ccc(OC)c(OC)c3)C2=O)cc1OC [Compound 5n] : MET
CC(=O)Oc1ccccc1C(=O)N1C/C(=C\c2cccs2)C(=O)/C(=C/c2cccs2)C1 [Compound 5i] : NOT MET

Now consider a different compound.
# input # strict comparison: is reported EGFR MCF7 % Inhibition < 60%? input = CC(=O)Oc1ccc(Cl)cc1C(=O)N1C/C(=C\c2ccc(Cl)cc2)C(=O)/C(=C/c2ccc(Cl)cc2)C1 [Compound 5k]
# output NOT MET

###

Readings of VEGFR2 MCF7 % Inhibition for the listed molecules
Target: VEGFR-2 (Homo sapiens)
Sequence (P35968 20-1356): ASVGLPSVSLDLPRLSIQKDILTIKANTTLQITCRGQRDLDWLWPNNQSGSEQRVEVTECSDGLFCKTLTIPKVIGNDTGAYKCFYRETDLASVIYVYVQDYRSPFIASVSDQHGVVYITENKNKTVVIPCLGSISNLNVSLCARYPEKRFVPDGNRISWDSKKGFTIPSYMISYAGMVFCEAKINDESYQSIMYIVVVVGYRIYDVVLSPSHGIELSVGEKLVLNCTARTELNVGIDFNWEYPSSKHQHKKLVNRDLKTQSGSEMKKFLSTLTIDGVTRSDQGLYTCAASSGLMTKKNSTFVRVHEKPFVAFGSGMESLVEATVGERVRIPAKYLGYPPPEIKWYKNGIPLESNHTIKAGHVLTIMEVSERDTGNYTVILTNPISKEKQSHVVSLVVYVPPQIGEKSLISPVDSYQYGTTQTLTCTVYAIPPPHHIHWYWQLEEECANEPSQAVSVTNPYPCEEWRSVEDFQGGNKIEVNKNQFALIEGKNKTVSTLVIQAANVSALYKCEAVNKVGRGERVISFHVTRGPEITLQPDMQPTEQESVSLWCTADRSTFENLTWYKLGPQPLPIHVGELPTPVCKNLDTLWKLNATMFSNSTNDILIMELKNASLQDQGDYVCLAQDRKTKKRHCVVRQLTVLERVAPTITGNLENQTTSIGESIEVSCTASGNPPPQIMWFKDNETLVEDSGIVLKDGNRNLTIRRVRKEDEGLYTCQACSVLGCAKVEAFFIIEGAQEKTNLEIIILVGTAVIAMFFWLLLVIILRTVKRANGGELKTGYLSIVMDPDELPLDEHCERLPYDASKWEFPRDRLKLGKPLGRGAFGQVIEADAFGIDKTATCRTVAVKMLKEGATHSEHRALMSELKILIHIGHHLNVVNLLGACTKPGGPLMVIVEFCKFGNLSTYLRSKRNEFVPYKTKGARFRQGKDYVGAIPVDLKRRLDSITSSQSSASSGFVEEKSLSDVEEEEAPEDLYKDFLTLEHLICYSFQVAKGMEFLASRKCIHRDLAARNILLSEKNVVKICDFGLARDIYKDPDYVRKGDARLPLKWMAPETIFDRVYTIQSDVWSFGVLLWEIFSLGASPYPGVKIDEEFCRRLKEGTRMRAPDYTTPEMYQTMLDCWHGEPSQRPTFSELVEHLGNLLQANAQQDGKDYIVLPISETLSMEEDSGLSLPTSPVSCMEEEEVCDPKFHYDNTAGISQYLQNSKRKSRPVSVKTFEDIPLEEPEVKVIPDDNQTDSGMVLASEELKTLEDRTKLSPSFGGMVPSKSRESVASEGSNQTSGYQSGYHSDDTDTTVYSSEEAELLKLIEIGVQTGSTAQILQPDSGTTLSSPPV
Assay: VEGFR-2 Western blot in MCF7
Assay type: cell-based
Details: Western blot at MTT-IC50
Express your answer as a number followed by its unit.

# input Can you share its VEGFR2 MCF7 % Inhibition? I mean this molecule: COc1ccc(/C=C2\CN(C(=O)c3cc(Cl)ccc3OC(C)=O)C/C(=C\c3ccc(OC)c(OC)c3)C2=O)cc1OC
# output 37.2%

###

Target: EGFR (Homo sapiens)
Assay: EGFR Western blot in HCT116
Format: cell-based
Settings: Western blot at MTT-IC50, control RQ 4.0382
Quick reference: EGFR HCT116 RQ (relative quantification) of the listed items.
The response must contain the number and no unit.

Example compounds with recorded EGFR HCT116 RQ (relative quantification):
COc1ccc(/C=C2\CN(C(=O)c3ccccc3OC(C)=O)C/C(=C\c3ccc(OC)cc3)C2=O)cc1 [Compound 5f] : 1.516
CC(=O)Oc1ccc(Cl)cc1C(=O)N1C/C(=C\c2ccccc2)C(=O)/C(=C/c2ccccc2)C1 [Compound 5j] : 1.273

# input I'm curious: which EGFR HCT116 RQ (relative quantification) was measured for COc1ccc(/C=C2\CN(C(=O)c3cc(Cl)ccc3OC(C)=O)C/C(=C\c3ccc(OC)cc3)C2=O)cc1 [Compound 5m] tested on EGFR (Homo sapiens)?
# output 1.273

# input Entry CC(=O)Oc1ccc(Cl)cc1C(=O)N1C/C(=C\c2cccs2)C(=O)/C(=C/c2cccs2)C1 [Compound 5p] please
# output 1.763

# input Then what about the compound CC(=O)Oc1ccc(Cl)cc1C(=O)N1C/C(=C\c2ccc(Cl)cc2)C(=O)/C(=C/c2ccc(Cl)cc2)C1 [Compound 5k] ?
# output 1.479

# input And then COc1cc(/C=C2\CN(C(=O)c3ccccc3OC(C)=O)C/C(=C\c3cc(OC)c(OC)c(OC)c3)C2=O)cc(OC)c1OC [Compound 5h] , what is it?
# output 1.698

# input Can you handle CC(=O)Oc1ccccc1C(=O)N1C/C(=C\c2ccc(F)cc2)C(=O)/C(=C/c2ccc(F)cc2)C1 [Compound 5b] next?
# output 1.1

# input Moving on to COc1cc(/C=C2\CN(C(=O)c3cc(Cl)ccc3OC(C)=O)C/C(=C\c3cc(OC)c(OC)c(OC)c3)C2=O)cc(OC)c1OC [Compound 5o]
# output 1.283

# input Same lookup for CC(=O)Oc1ccccc1C(=O)N1C/C(=C\c2cccs2)C(=O)/C(=C/c2cccs2)C1 [Compound 5i] , please.
# output 1.564

###

Target: VEGFR-2 (Homo sapiens)
Experiment: VEGFR-2 Western blot in HCT116
Format: cell-based
Details: Western blot at MTT-IC50, control RQ 3.817
Each entry below carries its recorded VEGFR2 HCT116 RQ (relative quantification).
Please give only the number in your answer, with no unit.

Sample records with VEGFR2 HCT116 RQ (relative quantification):
CC(=O)Oc1ccc(Cl)cc1C(=O)N1C/C(=C\c2cccs2)C(=O)/C(=C/c2cccs2)C1 : 2.304
CC(=O)Oc1ccccc1C(=O)N1C/C(=C\c2ccc(F)cc2)C(=O)/C(=C/c2ccc(F)cc2)C1 : 1.11
CC(=O)Oc1ccc(Cl)cc1C(=O)N1C/C(=C\c2ccccc2)C(=O)/C(=C/c2ccccc2)C1 : 0.8

# input Query: VEGFR2 HCT116 RQ (relative quantification); subject: COc1ccc(/C=C2\CN(C(=O)c3cc(Cl)ccc3OC(C)=O)C/C(=C\c3ccc(OC)c(OC)c3)C2=O)cc1OC
# output 2.389

# input Also CC(=O)Oc1ccccc1C(=O)N1C/C(=C\c2ccccc2)C(=O)/C(=C/c2ccccc2)C1 ?
# output 1.24

# input CC(=O)Oc1ccc(Cl)cc1C(=O)N1C/C(=C\c2ccc(Br)cc2)C(=O)/C(=C/c2ccc(Br)cc2)C1 , same question.
# output 0.9

# input Similarly, COc1ccc(/C=C2\CN(C(=O)c3ccccc3OC(C)=O)C/C(=C\c3ccc(OC)cc3)C2=O)cc1 ?
# output 1.37

###

Here the recorded SI = CC50/IC50 is given for each entry.
Test system: SARS-CoV-2 (hCoV-19/Egypt/NRC-03/2020)
Details: SARS-CoV-2 / VERO-E6

Observe how each entry below is paired with its result.
COc1ccc(/C=C2\CN(C(=O)c3cc(Cl)ccc3OC(C)=O)C/C(=C\c3ccc(OC)cc3)C2=O)cc1 [Compound 5m] : 138.7
CC(=O)Oc1ccccc1C(=O)N1C/C(=C\c2cccs2)C(=O)/C(=C/c2cccs2)C1 [Compound 5i] : 125.6
CC(=O)Oc1ccc(Cl)cc1C(=O)N1C/C(=C\c2ccc(Cl)cc2)C(=O)/C(=C/c2ccc(Cl)cc2)C1 [Compound 5k] : 10.3
COc1ccc(/C=C2\CN(C(=O)c3cc(Cl)ccc3OC(C)=O)C/C(=C\c3ccc(OC)c(OC)c3)C2=O)cc1OC [Compound 5n] : 88.9

# input Look at this compound and give its reported SI = CC50/IC50. CC(=O)Oc1ccccc1C(=O)N1C/C(=C\c2ccccc2)C(=O)/C(=C/c2ccccc2)C1 [Compound 5a]
# output 18.5

# input What about CC(=O)Oc1ccc(Cl)cc1C(=O)N1C/C(=C\c2ccccc2)C(=O)/C(=C/c2ccccc2)C1 [Compound 5j] ?
# output 5.7

###

System: MCF7 (breast) cancer cell line
Assay: MTT antiproliferative assay, MCF7
Type: cell-based
Conditions: Homo sapiens, MCF7, 72 h, read-out: IC50 ± SE, MCF7
# Lookup of reported pIC50 keyed by entry
FYI, pIC50 means -log10 of a concentration in mol per litre.

CC(=O)Oc1ccccc1C(=O)N1C/C(=C\c2ccc(F)cc2)C(=O)/C(=C/c2ccc(F)cc2)C1 : 5.24
CC(=O)Oc1ccccc1C(=O)N1C/C(=C\c2ccc(Br)cc2)C(=O)/C(=C/c2ccc(Br)cc2)C1 : 5.34
CC(=O)Oc1ccc(Cl)cc1C(=O)N1C/C(=C\c2cccs2)C(=O)/C(=C/c2cccs2)C1 : 5.20
CC(=O)Oc1ccc(Cl)cc1C(=O)N1C/C(=C\c2ccc(Br)cc2)C(=O)/C(=C/c2ccc(Br)cc2)C1 : 5.38
COc1ccc(/C=C2\CN(C(=O)c3ccccc3OC(C)=O)C/C(=C\c3ccc(OC)c(OC)c3)C2=O)cc1OC : 5.30
CC(=O)Oc1ccc(Cl)cc1C(=O)N1C/C(=C\c2ccc(Cl)cc2)C(=O)/C(=C/c2ccc(Cl)cc2)C1 : 5.39
CC(=O)Oc1ccccc1C(=O)N1C/C(=C\c2ccc(Cl)cc2)C(=O)/C(=C/c2ccc(Cl)cc2)C1 : 5.55
CC(=O)Oc1ccccc1C(=O)N1C/C(=C\c2ccc(C)cc2)C(=O)/C(=C/c2ccc(C)cc2)C1 : 5.22

Would you kindly look at the next entry?
# input Request the reported pIC50 associated with COc1ccc(/C=C2\CN(C(=O)c3cc(Cl)ccc3OC(C)=O)C/C(=C\c3ccc(OC)c(OC)c3)C2=O)cc1OC
# output 5.36
